Reference for the values: paper PMC5540273

%Inh for assorted compounds
tested on: MAP4K4; details: concentration: 1 μM, replicates: in singlicate; n = 1;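 note: KINOMEscan kinase panel screen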
Entry rule: numbers only, all in %.

Give %Inh for "c1ccc(Oc2ccc(Nc3ccnc4cc(-c5ccc(CN6CCCCC6)o5)ccc34)cc2)nc1"
13

====

tested on: IGF1R; conditions: concentration: 1 μM, replicates: in singlicate; n = 1
%Inh for assorted molecules
A bare number is not enough; add the unit after it.

{"columns": ["molecule", "%Inh"],
 "data": [
  ["CNc1nccc(-c2ccc3c(N)n[nH]c3c2)n1 [GSK2206003]", "22%"],
  ["Fc1cc(Cl)ccc1Nc1ccnc2cc(-c3ccc(CN4CCOCC4)o3)ccc12 [GW560109]", "12%"],
  ["COc1cc(Nc2nccc(N3CCC(NC(=O)Nc4ccc5c(c4)OCO5)C3)n2)cc(OC)c1OC (stereo not drawn) [GSK1379766]", "0%"],
  ["COc1cccc(CC(=O)N2CCc3cc(-c4cn(C)c5ncnc(N)c45)ccc32)c1 [GSK2608899]", "17%"],
  ["Nc1ncc(-c2cn[nH]c2)c2scc(-c3ccc4c(c3)CCN4C(=O)Cc3ccccc3)c12 [GSK2593067]", "4%"],
  ["Nc1ncnc2scc(-c3ccc(NC(=O)Cc4cc(F)ccc4F)cc3)c12.O=C(O)C(F)(F)F [SB-731254-M]", "0%"],
  ["CN(c1ccc(NC(=O)N2CCN(CCCN3CCOCC3)CC2)cc1)c1ccnc(Nc2ccc(CS(C)(=O)=O)cc2)n1.Cl [GW830899]", "1%"],
  ["CC(C)c1nc(-c2ccc(F)c(NS(=O)(=O)c3c(F)cccc3F)c2)c(-c2ccnc(Nc3ccc(N4CCOCC4)nc3)n2)s1 [GSK1804250]", "8%"]
]}

Now for a further molecule.
Determine reported %Inh for Fc1cc(Cl)ccc1Nc1ccnc2cc(-c3ccc(CN4CCSCC4)o3)ccc12 [GW560106] ; test system: IGF1R.
25%
